Target: T1, human tumor necrosis factor-α (rHuTNF-alpha, Biosource) (human, UniProt P01375 77-233)
T1 construct: Bought recombinant protein coated on ELISA plates; The TNFα of the Biacore assay is not described further; also called TNFα; human TNFα
T1 sequence (P01375 77-233 limits assumed): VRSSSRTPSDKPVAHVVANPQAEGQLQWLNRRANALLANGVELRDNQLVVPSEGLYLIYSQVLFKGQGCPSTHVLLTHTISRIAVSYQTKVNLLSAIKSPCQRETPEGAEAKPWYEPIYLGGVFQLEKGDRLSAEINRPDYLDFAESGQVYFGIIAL
Experiment: solid-phase ELISA, Fab lysate on coated rHuTNF-alpha
property.measured: binding result

[Q] # lookup: binding result of SEQ ID NO 25 (Fab, V domains shown, Fab, E. coli lysate) VH: EVQLVESGGGLVQPGGSLRLSCRASQFIFSNHYMNWVRQAPGKGLEWIGEIRSKSINSATHYAESVKGRFIISRDGNKTSLYLEMNSLKTEDTAEYYCAQNYYGSTPDYWGQGTLVTVS VL: EIVLTQSPDFQSVTPKEKVTITCRASQFVGSSIHWYQQKPDQSPKLLIKYASESMSGVPSRFSGSGSGTDFTFTISSLEAEDAATYYCQQSHSWPFTFGPGTKVDIK
[A] binds

[Q] # lookup: binding result of SEQ ID NO 99 (Fab, V domains shown, Fab, E. coli lysate) VH: EVQLVESGGGLVQPGGSLRLSCAASGSIFSNHYMNWVRQAPGKGLEWIGEIRSKSSNGATHYAESVKGRFIISRDDNKNSLYLEMNSLKTEDTAEYYCAQNYYGSTYDYWGQGTLVTVS VL: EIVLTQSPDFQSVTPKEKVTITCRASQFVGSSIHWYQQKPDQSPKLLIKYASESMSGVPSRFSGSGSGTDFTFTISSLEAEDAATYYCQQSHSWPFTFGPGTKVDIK
[A] binds

These entries and their values trace back to patent US20070092518A1.
